The entries below come with measured Mean Peak Serum [rhGH] values attached.
Assay: Recombinant human growth hormone (rhGH) oral delivery, serum rhGH by immunoassay
Conditions: oral gavage, rats; delivery agent compound 200 mg/kg, rhGH 3 mg/kg, volume dose 1 ml
recorded metric: Mean Peak Serum [rhGH] (ng/mL)

{"compound": "O=C(O)c1ccc(COc2ccccc2)cc1", "recorded metric": "Mean Peak Serum [rhGH]", "observed value": 0}
{"compound": "Nc1ccccc1OCCCCC(=O)O", "recorded metric": "Mean Peak Serum [rhGH]", "observed value": 19.6}
{"compound": "O=C(O)CCCCCCCOc1ccccc1[N+](=O)[O-]", "recorded metric": "Mean Peak Serum [rhGH]", "observed value": 22.6}
{"compound": "Nc1cc(Cl)ccc1OCCCCCCCC(=O)O", "recorded metric": "Mean Peak Serum [rhGH]", "observed value": 0}
{"compound": "CCC(=O)c1ccccc1OCCCCCCCCCC(=O)O", "recorded metric": "Mean Peak Serum [rhGH]", "observed value": 0}
{"compound": "Nc1ccccc1OCCCCCCCC(=O)O", "recorded metric": "Mean Peak Serum [rhGH]", "observed value": 39.5}
{"compound": "CC(=O)Nc1ccccc1OCCCCCCCC(=O)O", "recorded metric": "Mean Peak Serum [rhGH]", "observed value": 1.76}
{"compound": "NC(=O)c1ccccc1OCc1ccc(C(=O)O)cc1", "recorded metric": "Mean Peak Serum [rhGH]", "observed value": 0}
{"compound": "O=Cc1ccccc1OCCCCCC(=O)O", "recorded metric": "Mean Peak Serum [rhGH]", "observed value": 1.5}
{"compound": "CC(=O)c1ccccc1OCCCCCCCCCC(=O)O", "recorded metric": "Mean Peak Serum [rhGH]", "observed value": 6.37}
{"compound": "O=C(O)c1ccc(COc2ccccc2Cl)cc1", "recorded metric": "Mean Peak Serum [rhGH]", "observed value": 0}
{"compound": "CC=Cc1ccccc1OCCCCCCCC(=O)O", "recorded metric": "Mean Peak Serum [rhGH]", "observed value": 223}
{"compound": "CC(=O)c1ccccc1OCCCC(=O)O", "recorded metric": "Mean Peak Serum [rhGH]", "observed value": 1}
{"compound": "COc1ccc(C(C)=O)c(OCCCCCCCC(=O)O)c1", "recorded metric": "Mean Peak Serum [rhGH]", "observed value": 0}
{"compound": "O=C(O)CCCCCCCCCOc1ccccc1O", "recorded metric": "Mean Peak Serum [rhGH]", "observed value": 4.88}
{"compound": "O=C(O)CCCCCCCCCCOc1ccccc1O", "recorded metric": "Mean Peak Serum [rhGH]", "observed value": 28}
{"compound": "O=C(O)C=Cc1ccccc1OCCCCCCCC(=O)O", "recorded metric": "Mean Peak Serum [rhGH]", "observed value": 0}
{"compound": "CC(=O)c1ccccc1OCCCCC(=O)O", "recorded metric": "Mean Peak Serum [rhGH]", "observed value": 34.3}
{"compound": "CC(O)c1ccccc1OCCCCCCCC(=O)O (stereo not drawn)", "recorded metric": "Mean Peak Serum [rhGH]", "observed value": 0}
{"compound": "CC(=O)c1ccc(OCCCCCCCC(=O)O)cc1", "recorded metric": "Mean Peak Serum [rhGH]", "observed value": 6.2}
{"compound": "CC(=O)c1ccccc1OCCCCCC(=O)O", "recorded metric": "Mean Peak Serum [rhGH]", "observed value": 35.4}
